Assay: chemical genetic growth profiling, strain panel (AID 1159580);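 note: tested at 20 µM; growth read once vehicle control cultures reached saturation at 30 °C; 1 = growth at the plate median or of vehicle wells; lower values mean less growth of the strain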
Details: S. cerevisiae deletion strains, growth OD, locus YBR023C, strain chs3, active compounds read low
The whole screen tested about 5,500 compounds, of which about 2,000 (36%) were called active. Not shown: some 18% with an inconclusive outcome. The list shows a part of the results.

{"MOLECULE": "C=C(C)[C@H]1CC=C(C(=O)O)CC1", "normalized growth": 0.985}
{"MOLECULE": "Cc1ccc2c(Cl)cc(Cl)c(O)c2n1", "normalized growth": 1.02}
{"MOLECULE": "Cc1ccc(/C(=C\\CN2CCCC2)c2ccccn2)cc1", "normalized growth": 1.01}
{"MOLECULE": "CCCCC(CC)CN1CN(CC(CC)CCCC)CC(C)(N)C1 (stereo not given)", "normalized growth": 0.0607}
{"MOLECULE": "CCCC(C)C1(CC)C(=O)NC(=O)NC1=O (stereo not given)", "normalized growth": 1}
{"MOLECULE": "Oc1c(Cl)cc(Cl)c2cccnc12", "normalized growth": 0.0713}
{"MOLECULE": "CC(C)=CCC/C(C)=C/CC/C(C)=C/CC/C(C)=C/CC/C(C)=C/CC/C(C)=C/CC/C(C)=C/CC/C(C)=C/CC/C(C)=C/CO", "normalized growth": 1}
{"MOLECULE": "CN[C@H](CC(=O)O)C(=O)O", "normalized growth": 1.03}
{"MOLECULE": "CC1(C)C(C(Cl)Cl)C2(Cl)C(Cl)C(Cl)C1(Cl)C2(Cl)Cl (stereo not given)", "normalized growth": 0.978}
{"MOLECULE": "CC(C)=CCC[C@](C)(O)C1CC=C(C)CC1 (stereo not given in full)", "normalized growth": 0.981}
{"MOLECULE": "CCCC(C)C1(CC)C(=O)N=C(S)NC1=O (stereo not given)", "normalized growth": 0.989}
{"MOLECULE": "CC(C)(C)NCC(O)c1ccccc1Cl (stereo not given)", "normalized growth": 0.993}
{"MOLECULE": "CCCC1O[C@@H]2CC3C4CCC5=CC(=O)C=CC5(C)C4[C@@H](O)CC3(C)[C@]2(C(=O)CO)O1 (stereo not given in full)", "normalized growth": 1.02}
{"MOLECULE": "C=CCC1(C(C)CCC)C(=O)N=C(S)NC1=O (stereo not given)", "normalized growth": 0.986}
{"MOLECULE": "CC(C)NCC(O)c1ccc2ccccc2c1 (stereo not given)", "normalized growth": 1}
{"MOLECULE": "O=C(O[C@@H]1Cc2c(O)cc(O)cc2O[C@@H]1c1cc(O)c(O)c(O)c1-c1c([C@H]2Oc3cc(O)cc(O)c3C[C@H]2O)cc(O)c(O)c1O)c1cc(O)c(O)c(O)c1", "normalized growth": 0.936}
{"MOLECULE": "Cc1ccsc1/C=C/C1=NCCCN1C", "normalized growth": 0.984}
{"MOLECULE": "O=c1[nH]c(=O)n(C2C[C@@H](O)[C@@H](CO)O2)cc1F (stereo not given in full)", "normalized growth": 1}
{"MOLECULE": "O=C(O)C1=CCNCC1", "normalized growth": 1.01}
{"MOLECULE": "CC(C)NCC(O)c1ccc(O)c(O)c1 (stereo not given)", "normalized growth": 0.982}
{"MOLECULE": "Oc1c(I)cc(Cl)c2cccnc12", "normalized growth": 0.0818}
{"MOLECULE": "CNC[C@@H](O)c1ccc(O)c(O)c1", "normalized growth": 1.01}
{"MOLECULE": "OC[C@@H]1CCCN2CCCC[C@H]12", "normalized growth": 1.05}
{"MOLECULE": "C=CC(C)(O)CC/C=C(\\C)CCC=C(C)C (stereo not given)", "normalized growth": 0.938}
{"MOLECULE": "COc1cc(OC)c2c(=O)c(-c3ccccc3)c(C)oc2c1OC", "normalized growth": 0.987}

Values compiled from PubChem BioAssay AID1159580.
